Tested on: HSkMC (human skeletal muscle cells)
METHOD: cytotoxicity call (relative viability < 0.9)
STATED_CONDITIONS: 10 µM
The campaign covered roughly 39,000 compounds. About 1,500 (3.8%) were called active. The list comes from a sample in which actives are over-represented; it also holds close analogues and randomly drawn compounds.
Response enum: YES = active, NO = inactive

Take a look at these entries with their results.
Cc1ccc(S(=O)(=O)Nc2ccc3c(c2)C(=O)N([C@@H](C)CO)C[C@@H](C)[C@@H](CN(C)C(=O)c2ccccc2)OCCCC[C@H](C)O3)cc1 | NO
C[C@H](CO)N1C[C@H](C)[C@@H](CN(C)Cc2ccc(-c3ccccc3)cc2)Oc2ccc(NS(=O)(=O)c3ccccc3)cc2C1=O | NO
C[C@H]1CN([C@@H](C)CO)C(=O)c2cc(NS(=O)(=O)c3ccc(Cl)cc3)ccc2O[C@@H]1CN(C)Cc1ccc(-c2ccccc2)cc1 | NO
C[C@H]1CN([C@@H](C)CO)C(=O)c2cc(NS(=O)(=O)c3ccccc3)ccc2O[C@@H]1CN(C)Cc1ccc(-c2ccccc2)cc1 | NO
C[C@@H]1CN([C@H](C)CO)C(=O)c2cc(NS(=O)(=O)c3ccc(Cl)cc3)ccc2O[C@@H]1CN(C)Cc1ccc(-c2ccccc2)cc1 | YES

IN: Please state the recorded outcome for this molecule: `C[C@H](CO)N1C[C@H](C)[C@H](CN(C)Cc2ccc(-c3ccccc3)cc2)Oc2ccc(NS(=O)(=O)c3ccc(Cl)cc3)cc2C1=O`
OUT: YES

IN: Would you kindly repeat that for `C[C@@H]1CN([C@H](C)CO)C(=O)c2cc(NS(=O)(=O)c3ccccc3)ccc2O[C@@H]1CN(C)Cc1ccc(-c2ccccc2)cc1` ?
OUT: NO
